SYSTEM: human GLP1-R (SNAP-GLP-1R expressed in HEK293 cells) (human) (UniProt P43220)
Sequence (P43220 24-463): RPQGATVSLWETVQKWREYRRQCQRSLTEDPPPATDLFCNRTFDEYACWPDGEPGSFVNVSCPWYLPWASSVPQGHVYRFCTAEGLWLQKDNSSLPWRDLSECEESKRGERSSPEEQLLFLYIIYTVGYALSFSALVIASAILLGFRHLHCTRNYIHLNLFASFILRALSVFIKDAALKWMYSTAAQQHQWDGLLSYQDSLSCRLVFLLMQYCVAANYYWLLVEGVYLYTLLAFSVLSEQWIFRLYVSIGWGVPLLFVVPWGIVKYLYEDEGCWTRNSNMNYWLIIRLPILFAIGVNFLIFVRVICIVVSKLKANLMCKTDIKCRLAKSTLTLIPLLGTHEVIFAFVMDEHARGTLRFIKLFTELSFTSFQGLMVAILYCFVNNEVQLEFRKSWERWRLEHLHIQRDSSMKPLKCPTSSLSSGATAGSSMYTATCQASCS
ASSAY_EXPLANATION: cell-based or functional assay
This section presents binders with their documented GLP1R Internalization EC50 values.
EXPERIMENTAL_READOUT: GLP1R Internalization EC50 (nM)

[
  {
    "BINDER": "YXQGTFTSDFSKXLDKKAQXAFIEYLLEXGPSSGAPPPSSG (synthetic construct; SITE 2: note = 2-Aminoisobutyric Acid; SITE 13: note = alpha-methyl-leucine; SITE 17: note = Lysine is chemically modified through conjugation of the epsilon-amino group of the Lysine side chain with (2-[2-(2-Amino-ethoxy)-ethoxy]-acetyl)-(gamma-Glu)-CO-(CH2) 18-CO2H; SITE 20: n) [Example 44]",
    "ENDPOINT_UNIT": "nM",
    "READOUT_NUMBER": 51.5
  },
  {
    "BINDER": "YXQGTFTSDFSKXLDKKAQXAFIEYLLAGGPSSGAPPPSSG (synthetic construct; SITE 2: note = 2-Aminoisobutyric Acid; SITE 13: note = alpha-methyl-leucine; SITE 17: note = Lysine is chemically modified through conjugation of the epsilon-amino group of the Lysine side chain with (2-[2-(2-Amino-ethoxy)-ethoxy]-acetyl)-(gamma-Glu)-CO-(CH2) 18-CO2H; SITE 20: n) [Example 13]",
    "ENDPOINT_UNIT": "nM",
    "READOUT_NUMBER": 53.3
  },
  {
    "BINDER": "YXQGTFTSDFSKXLDKKAQXAFIEYLIEGGPSSGAPPPSEG (not fully specified; acylated lipid side chain; synthetic construct; SITE 2: note = 2-Aminoisobutyric Acid; SITE 13: note = alpha-methyl-leucine; SITE 17: note = Lysine is chemically modified through conjugation of the epsilon-amino group of the Lysine side chain with (2-[2-(2-Amino-ethoxy)-ethoxy]-acetyl)-(gamma-Glu)-CO-gamma -gamma-(CH2)16-CO2H) [Example 49]",
    "ENDPOINT_UNIT": "nM",
    "READOUT_NUMBER": 37.2
  },
  {
    "BINDER": "YXQGTFTSDFSKXLDKKAQXAFIEYLLEGGPSSGAPPPSEG (synthetic construct; SITE 2: note = 2-Aminoisobutyric Acid; SITE 13: note = alpha-methyl-leucine; SITE 17: note = Lysine is chemically modified through conjugation of the epsilon-amino group of the Lysine side chain with (gamma-Glu)2-CO-(CH2)16-CO2H; SITE 20: note = 2-Aminoisobutyric Acid; SITE 41:) [Example 58]",
    "ENDPOINT_UNIT": "nM",
    "READOUT_NUMBER": 56.2
  },
  {
    "BINDER": "YXQGTFTSDFSXXLDKKAQXAFIEYLLAGGPSSGAPPPSGT (synthetic construct; SITE 2: note = 2-Aminoisobutyric Acid; SITE 12: note = L-ornithine; SITE 13: note = alpha-methyl-leucine; SITE 17: note = Lysine is chemically modified through conjugation of the epsilon-amino group of the Lysine side chain with (2-[2-(2-Amino-ethoxy)-ethoxy]-acetyl)-(gamma-Glu)) [Example 87]",
    "ENDPOINT_UNIT": "nM",
    "READOUT_NUMBER": 61.8
  },
  {
    "BINDER": "YXQGTFTSDFSXXLDKKAQXAFIEYLLAGGPSSGAPPPSGD (synthetic construct; SITE 2: note = 2-Aminoisobutyric Acid; SITE 12: note = L-ornithine; SITE 13: note = alpha-methyl-leucine; SITE 17: note = Lysine is chemically modified through conjugation of the epsilon-amino group of the Lysine side chain with (2-[2-(2-Amino-ethoxy)-ethoxy]-acetyl)-(gamma-Glu)) [Example 85]",
    "ENDPOINT_UNIT": "nM",
    "READOUT_NUMBER": 326
  },
  {
    "BINDER": "YXQGTFTSDFSKXLDKKAQXAFIEYLLAGGPSSGEPPPSSG (synthetic construct; SITE 2: note = 2-Aminoisobutyric Acid; SITE 13: note = alpha-methyl-leucine; SITE 17: note = Lysine is chemically modified through conjugation of the epsilon-amino group of the Lysine side chain with (2-[2-(2-Amino-ethoxy)-ethoxy]-acetyl)-(gamma-Glu)-CO-(CH2) 18-CO2H; SITE 20: n) [Example 7]",
    "ENDPOINT_UNIT": "nM",
    "READOUT_NUMBER": 52.6
  },
  {
    "BINDER": "YXQGTFTSDFSKXLDKKAQXAFIEYLLEXGPSSGAPPPGEG (synthetic construct; SITE 2: note = 2-Aminoisobutyric Acid; SITE 13: note = alpha-methyl-leucine; SITE 17: note = Lysine is chemically modified through conjugation of the epsilon-amino group of the Lysine side chain with (2-[2-(2-Amino-ethoxy)-ethoxy]-acetyl)2-(gamma-Glu)-CO-(CH2 )18-CO2H; SITE 20:) [Example 55]",
    "ENDPOINT_UNIT": "nM",
    "READOUT_NUMBER": 79.5
  },
  {
    "BINDER": "YXQGTFTSDFSXXLDKKAQXAFIEWLLEGGPSSGAPPPSGS (synthetic construct; SITE 2: note = 2-Aminoisobutyric Acid; SITE 12: note = L-ornithine; SITE 13: note = alpha-methyl-leucine; SITE 17: note = Lysine is chemically modified through conjugation of the epsilon-amino group of the Lysine side chain with (2-[2-(2-Amino-ethoxy)-ethoxy]-acetyl)-(gamma-Glu)) [Example 78]",
    "ENDPOINT_UNIT": "nM",
    "READOUT_NUMBER": 78.2
  },
  {
    "BINDER": "YXQGTFTSDFSKXLDKKAQXAFIEYLLEGGPSSGAPPPGEG (synthetic construct; SITE 2: note = 2-Aminoisobutyric Acid; SITE 13: note = alpha-methyl-leucine; SITE 17: note = Lysine is chemically modified through conjugation of the epsilon-amino group of the Lysine side chain with (2-[2-(2-Amino-ethoxy)-ethoxy]-acetyl)2-(gamma-Glu)-CO-(CH2 )18-CO2H; SITE 20:) [Example 17]",
    "ENDPOINT_UNIT": "nM",
    "READOUT_NUMBER": 66.2
  },
  {
    "BINDER": "YXQGTFTSDFSRXLDKKAQXAFIEYLLEGGPSSGAPPPGGS (synthetic construct; SITE 2: note = 2-Aminoisobutyric Acid; SITE 13: note = alpha-methyl-leucine; SITE 17: note = Lysine is chemically modified through conjugation of the epsilon-amino group of the Lysine side chain with (2-[2-(2-Amino-ethoxy)-ethoxy]-acetyl)-(gamma-Glu)-CO-(CH2) 18-CO2H; SITE 20: n) [Example 41]",
    "ENDPOINT_UNIT": "nM",
    "READOUT_NUMBER": 83.7
  },
  {
    "BINDER": "YXQGTFTSDFSKXLDKKAQXAFIEYLLAGGPSSGAPPPGGS (synthetic construct; SITE 2: note = 2-Aminoisobutyric Acid; SITE 13: note = alpha-methyl-leucine; SITE 17: note = Lysine is chemically modified through conjugation of the epsilon-amino group of the Lysine side chain with (2-[2-(2-Amino-ethoxy)-ethoxy]-acetyl)-(gamma-Glu)-CO-(CH2) 18-CO2H; SITE 20: n) [Example 16]",
    "ENDPOINT_UNIT": "nM",
    "READOUT_NUMBER": 37.8
  }
]
